Attribution: the supplement of paper PMC10567573

This section presents variants with their documented protein stability index values.
B1: TCAP (parent)
chain: YQRVLPLPIFTPAKMGATKEERED

Variants of: B1
TEST_NAME: protein stability index of a GFP-peptide fusion (GPS, HEK-293T) (PSI 1-6); higher = more stable;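 note: lentivirally expressed fusions sorted by FACS into six bins by GFP to DsRed ratio, PSI derived from sequencing read proportions per bin multiplied by bin number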
MEASUREMENT_PARAMETERS: c terminus: a fixed tail appended
I only need the number, thanks.

Guide cases for protein stability index, answers given:
// protein stability index lookup, key: A13H
1.69

So what's the measured protein stability index for this one? R3M
3.43

protein stability index for Q2M ?
2.54

Consider the variant shown here: T18Q What is its recorded protein stability index?
2.39

Quick check: protein stability index of I9T ?
4.02

Next:
Quick one: protein stability index for P8C ?
2.62

// returns reported protein stability index for input T11F
2.25

Name the recorded protein stability index for R22W .
1.71
